The reader will find reported pEC50 values listed item by item below.
Molecular target: OR11A1 (Homo sapiens, UniProt Q9GZK7)
Sequence (Q9GZK7 whole entry): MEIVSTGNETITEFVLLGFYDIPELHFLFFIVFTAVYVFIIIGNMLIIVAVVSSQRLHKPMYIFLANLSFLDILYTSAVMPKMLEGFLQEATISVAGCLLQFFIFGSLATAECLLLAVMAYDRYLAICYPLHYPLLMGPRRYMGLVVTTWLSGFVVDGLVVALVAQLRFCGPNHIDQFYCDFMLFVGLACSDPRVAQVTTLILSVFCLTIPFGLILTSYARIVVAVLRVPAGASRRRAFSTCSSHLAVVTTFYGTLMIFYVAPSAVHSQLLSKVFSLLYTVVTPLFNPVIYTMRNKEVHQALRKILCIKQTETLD
Assay: CRE-luciferase reporter assay in HEKOlf cells transiently transfected with OR11A1
Conditions: Example 4, Table 5; 0.03-100 µM tested
Procedure: The experiments were performed using a HEK293 cell line (deposited at the ATCC under accession n° CRL-1573) stably expressing the Gαolf G-protein and the cyclic nucleotide gated ion channel A2 subunit (CNGA2) (herein called HEKOlf). […] In this assay, the interaction of an odorant with its cognate olfactory receptor leads to the activation of the human Gαolf G-protein. […] The cells were then transferred into an automated fluorometric imaging plate reader (FLIPR^TETRA, Molecular Devices). […]
pEC50 is a log-scale quantity: -log10 of the concentration expressed in molar.

[
  {
    "molecule": "Cc1cc(O)c(C(=O)CCC(C)C)c(=O)o1 [Pogostone, pogostone]",
    "pEC50": 4.83
  },
  {
    "molecule": "CC1(C)C2CCC3(C)C4C(CCC13O)C24 (stereo not drawn) [Patcho 315]",
    "pEC50": 5.54
  }
]

Which pEC50 is reported with OR11A1 (Homo sapiens, UniProt Q9GZK7) for this entry: C[C@H]1CC[C@@]2(O)C(C)(C)[C@@H]3CC[C@@]2(C)[C@H]1C3 [Patchouli alcohol] ? 4.92
